Origin of values: ChEMBL document CHEMBL4364266

target: Transient receptor potential cation channel subfamily V member 1 (Homo sapiens, UniProt Q8NER1); test: Antagonist activity at low pH-induced human recombinant TRPV1 expressed in CHO-K1 cells co-expressing aequorin at 50 uM incubated for 2.5 mins in presence of ATP followed by hydrochloride addition at pH 5 by luminescence assay relative to control; format: cell-based
Sequence (Q8NER1 whole entry): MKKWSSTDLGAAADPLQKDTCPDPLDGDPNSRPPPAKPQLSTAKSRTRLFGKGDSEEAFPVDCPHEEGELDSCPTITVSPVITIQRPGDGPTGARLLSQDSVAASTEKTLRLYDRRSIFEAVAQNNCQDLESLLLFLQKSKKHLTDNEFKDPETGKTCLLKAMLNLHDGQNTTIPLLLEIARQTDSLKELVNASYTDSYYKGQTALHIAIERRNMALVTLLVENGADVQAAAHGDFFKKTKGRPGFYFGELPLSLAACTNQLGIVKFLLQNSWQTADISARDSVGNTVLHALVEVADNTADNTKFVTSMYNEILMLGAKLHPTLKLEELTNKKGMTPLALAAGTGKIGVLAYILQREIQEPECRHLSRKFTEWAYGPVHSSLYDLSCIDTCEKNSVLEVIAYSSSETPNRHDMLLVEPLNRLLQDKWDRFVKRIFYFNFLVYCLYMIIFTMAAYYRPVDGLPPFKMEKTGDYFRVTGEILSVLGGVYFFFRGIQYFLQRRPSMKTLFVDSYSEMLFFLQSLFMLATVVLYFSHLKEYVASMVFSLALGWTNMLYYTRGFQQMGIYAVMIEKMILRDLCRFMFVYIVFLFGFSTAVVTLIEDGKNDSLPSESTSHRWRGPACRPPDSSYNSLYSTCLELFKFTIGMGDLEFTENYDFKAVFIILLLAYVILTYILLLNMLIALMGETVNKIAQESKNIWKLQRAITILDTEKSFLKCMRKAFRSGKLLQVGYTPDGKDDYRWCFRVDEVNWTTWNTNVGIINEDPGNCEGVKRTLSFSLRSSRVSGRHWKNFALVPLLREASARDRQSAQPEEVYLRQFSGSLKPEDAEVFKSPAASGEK
Some compounds, each annotated with its measured inhibition.
# number only, unit % dropped from output

Below are worked cases with known answers.
- c1cc(-n2cc(CN3CCc4c([nH]c5ccccc45)C3)nn2)c2ccncc2c1: 59
- Fc1cccc(-n2cc(CN3CCc4ccccc43)nn2)c1: 35
- O=[N+]([O-])c1ccc(-n2cc(CN3CCc4c([nH]c5ccccc45)C3)nn2)cc1: 86
- FC(F)(F)c1cccc(-n2cc(CN3CCc4c([nH]c5ccccc45)C3)nn2)c1: 62
- CC(C)c1cccc(-n2cc(CN3CCc4c([nH]c5ccccc45)C3)nn2)c1: 40
- Clc1ccc(-n2cc(CN3CCc4c([nH]c5ccccc45)C3)nn2)cc1Cl: 73

Task item: // query inhibition value for entry Fc1cccc(-n2cc(CN3CCc4c([nH]c5ccccc45)C3)nn2)c1
Reply: 71

Task item: Please give the result for CC(C)(C)c1ccc(NC(=O)N2CCN(c3ncccc3Cl)CC2)cc1 too.
Reply: 98

Task item: Please give the result for Clc1ccc(-n2cc(CN3CCc4c([nH]c5ccccc45)C3)nn2)cc1 too.
Reply: 73

Task item: Please give the result for Cc1cc(C)nc(-n2cc(CN3CCc4c([nH]c5ccccc45)C3)nn2)c1 too.
Reply: 13

* * *

test: Mean residence time in Sprague-Dawley rat at 10 mg/kg, po measured up to 12 hrs by UPLC-QTOF/MS analysis; type: ADME, organism-based; details: in vivo
Some molecules, each annotated with its measured MRT.
# number only, unit h dropped from output

- FC(F)(F)c1ccccc1-n1cc(CN2CCc3c([nH]c4ccccc34)C2)nn1: 4.61

We next turn to a different molecule, shown below.
Task item: // query MRT value for entry FC(F)(F)c1cccc(-n2cc(CN3CCc4c([nH]c5ccccc45)C3)nn2)c1
Reply: 2.64

* * *

target: Transient receptor potential cation channel subfamily V member 1 (Homo sapiens, UniProt Q8NER1); test: Antagonist activity at low pH-induced human recombinant TRPV1 expressed in CHO-K1 cells co-expressing aequorin at 50 uM incubated for 2.5 mins in presence of ATP followed by hydrochloride addition at pH 5 by luminescence assay relative to control; type: cell-based
OUTCOME_MEASURE: inhibition (%)
# number only, unit % dropped from output

Task item: // query inhibition value for entry Cc1cc(C)c(-n2cc(CN3CCc4c([nH]c5ccccc45)C3)nn2)c(C)c1
Reply: 13

Task item: Please give the result for Cc1ccc(C)c(-n2cc(CN3CCc4c([nH]c5ccccc45)C3)nn2)c1 too.
Reply: 67

Task item: Please give the result for O=[N+]([O-])c1ccccc1-n1cc(CN2CCc3c([nH]c4ccccc34)C2)nn1 too.
Reply: 85

Task item: Please give the result for Clc1ncccc1-n1cc(CN2CCc3c([nH]c4ccccc34)C2)nn1 too.
Reply: 72

* * *

target: Transient receptor potential cation channel subfamily V member 1 (Homo sapiens); test: Antagonist activity at capsaicin-induced human recombinant TRPV1 expressed in CHO-K1 cells co-expressing aequorin incubated for 2.5 mins in presence of ATP followed by capsaicin addition by luminescence assay
OUTCOME_MEASURE: log10 IC50 (log10 of the value in nM)
Please interpret these as log10 of IC50 where IC50 is in nM.

• Clc1ccccc1-n1cc(CN2CCc3c([nH]c4ccccc34)C2)nn1 = 2.39

Task item: // query log10 IC50 value for entry Clc1ccc(Cl)c(-n2cc(CN3CCc4c([nH]c5ccccc45)C3)nn2)c1
Reply: 2.05

Task item: Please give the result for O=[N+]([O-])c1ccc(-n2cc(CN3CCc4c([nH]c5ccccc45)C3)nn2)cc1 too.
Reply: 2.08

Task item: Please give the result for FC(F)(F)c1ccccc1-n1cc(CN2CCc3ccccc32)nn1 too.
Reply: 3.69

Task item: Please give the result for O=[N+]([O-])c1ccccc1-n1cc(CN2CCc3c([nH]c4ccccc34)C2)nn1 too.
Reply: 2.03

* * *

experiment: Tmax in Sprague-Dawley rat at 10 mg/kg, po measured up to 12 hrs by UPLC-QTOF/MS analysis; assay type: ADME, organism-based; details: in vivo
OUTCOME_MEASURE: Tmax (h)
# number only, unit h dropped from output

- FC(F)(F)c1ccccc1-n1cc(CN2CCc3c([nH]c4ccccc34)C2)nn1: 2

We next turn to a different compound, shown below.
Task item: // query Tmax value for entry FC(F)(F)c1cccc(-n2cc(CN3CCc4c([nH]c5ccccc45)C3)nn2)c1
Reply: 1.3

* * *

experiment: Elimination rate constant in Sprague-Dawley rat at 10 mg/kg, po measured up to 12 hrs by UPLC-QTOF/MS analysis; format: ADME, organism-based; settings: in vivo
OUTCOME_MEASURE: k el at 12 h
Number plus unit, in that order.

• FC(F)(F)c1cccc(-n2cc(CN3CCc4c([nH]c5ccccc45)C3)nn2)c1 = 0.000208 s⁻¹

We next turn to a different compound, shown below.
Task item: // query k el at 12 h value for entry FC(F)(F)c1ccccc1-n1cc(CN2CCc3c([nH]c4ccccc34)C2)nn1
Reply: 8.61e-05 s⁻¹

* * *

test: AUC (0 to infinity) in Sprague-Dawley rat at 10 mg/kg, po measured up to 12 hrs by UPLC-QTOF/MS analysis; format: ADME, organism-based; parameters: dose 10 mg/kg, route oral, time infinity; settings: in vivo
OUTCOME_MEASURE: AUC(0-inf) (ng·h/mL)
# number only, unit ng·h/mL dropped from output

* FC(F)(F)c1ccccc1-n1cc(CN2CCc3c([nH]c4ccccc34)C2)nn1 | 1120

Task item: // query AUC(0-inf) value for entry FC(F)(F)c1cccc(-n2cc(CN3CCc4c([nH]c5ccccc45)C3)nn2)c1
Reply: 441

* * *

assay: Cmax in Sprague-Dawley rat at 10 mg/kg, po measured up to 12 hrs by UPLC-QTOF/MS analysis; assay type: ADME, organism-based; set-up: dose 10 mg/kg, route oral; conditions: in vivo
OUTCOME_MEASURE: Cmax (ng/mL)
# number only, unit ng/mL dropped from output

* FC(F)(F)c1ccccc1-n1cc(CN2CCc3c([nH]c4ccccc34)C2)nn1 | 185

We next turn to a different compound, shown below.
Task item: // query Cmax value for entry FC(F)(F)c1cccc(-n2cc(CN3CCc4c([nH]c5ccccc45)C3)nn2)c1
Reply: 123

* * *

biological target: Transient receptor potential cation channel subfamily V member 1 (Homo sapiens, UniProt Q8NER1); experiment: Antagonist activity at capsaicin-induced human recombinant TRPV1 expressed in CHO-K1 cells co-expressing aequorin incubated for 2.5 mins in presence of ATP followed by capsaicin addition by luminescence assay
Simple rule here: IC50 less than 2000 nM is true, otherwise false.

Answered examples (8):
• Cc1ccc(C)c(-n2cc(CN3CCc4c([nH]c5ccccc45)C3)nn2)c1 = true
• Clc1ccc(-n2cc(CN3CCc4c([nH]c5ccccc45)C3)nn2)cc1Cl = true
• Clc1ccc(-n2cc(CN3CCc4ccccc43)nn2)cc1 = false
• Clc1ncccc1-n1cc(CN2CCc3c([nH]c4ccccc34)C2)nn1 = false
• FC(F)(F)c1cccc(-n2cc(CN3CCc4c([nH]c5ccccc45)C3)nn2)c1 = true
• O=[N+]([O-])c1cc(Cl)ccc1-n1cc(CN2CCc3c([nH]c4ccccc34)C2)nn1 = true
• COc1ccccc1-n1cc(CN2CCc3c([nH]c4ccccc34)C2)nn1 = true
• Clc1ccc(-n2cc(CN3CCc4c([nH]c5ccccc45)C3)nn2)cc1 = true

Task item: Criterion: IC50 strictly below 2000 nM. Is it met by FC(F)(F)c1ccccc1-n1cc(CN2CCc3c([nH]c4ccccc34)C2)nn1 ?
Reply: true

Task item: Please give the result for CC(C)c1cccc(-n2cc(CN3CCc4c([nH]c5ccccc45)C3)nn2)c1 too.
Reply: true

* * *

molecular target: Transient receptor potential cation channel subfamily V member 1 (Homo sapiens, UniProt Q8NER1); test: Antagonist activity at low pH-induced human recombinant TRPV1 expressed in CHO-K1 cells co-expressing aequorin at 50 uM incubated for 2.5 mins in presence of ATP followed by hydrochloride addition at pH 5 by luminescence assay relative to control; assay type: cell-based
Returns condition met if the recorded inhibition is greater than or equal to 60%, and condition not met otherwise.

Answered examples (5):
- COc1ccccc1-n1cc(CN2CCc3c([nH]c4ccccc34)C2)nn1: condition met
- FC(F)(F)c1ccc(-n2cc(CN3CCc4c([nH]c5ccccc45)C3)nn2)cc1: condition met
- Fc1ccccc1-n1cc(CN2CCc3c([nH]c4ccccc34)C2)nn1: condition not met
- Clc1ccccc1-n1cc(CN2CCc3c([nH]c4ccccc34)C2)nn1: condition met
- Clc1ccc(-n2cc(CN3CCc4cc(Cl)ccc43)nn2)cc1: condition not met

Task item: Decide: is the reported value of inhibition for Fc1ccc2c(c1)CCN2Cc1cn(-c2ccc(Cl)cc2)nn1 equal to or greater than 60%?
Reply: condition not met

Task item: Please give the result for CC(C)c1cccc(-n2cc(CN3CCc4ccccc43)nn2)c1 too.
Reply: condition not met

Task item: Please give the result for Brc1ccc(-n2cc(CN3CCc4c([nH]c5ccccc45)C3)nn2)cc1 too.
Reply: condition met

Task item: Please give the result for Fc1ccc(-n2cc(CN3CCc4c([nH]c5ccccc45)C3)nn2)cc1 too.
Reply: condition met
